target: mutant BRAF enzyme (BRAF-V600E) (Homo sapiens (Human), UniProt P15056, V600E); assay: RAF inhibition assay (TB-PMAP2K1 kit), BRAF-V600E; conditions: FLUORESCEIN-MAP2K1 substrate, 60 min reaction
Sequence (P15056 whole entry V600E): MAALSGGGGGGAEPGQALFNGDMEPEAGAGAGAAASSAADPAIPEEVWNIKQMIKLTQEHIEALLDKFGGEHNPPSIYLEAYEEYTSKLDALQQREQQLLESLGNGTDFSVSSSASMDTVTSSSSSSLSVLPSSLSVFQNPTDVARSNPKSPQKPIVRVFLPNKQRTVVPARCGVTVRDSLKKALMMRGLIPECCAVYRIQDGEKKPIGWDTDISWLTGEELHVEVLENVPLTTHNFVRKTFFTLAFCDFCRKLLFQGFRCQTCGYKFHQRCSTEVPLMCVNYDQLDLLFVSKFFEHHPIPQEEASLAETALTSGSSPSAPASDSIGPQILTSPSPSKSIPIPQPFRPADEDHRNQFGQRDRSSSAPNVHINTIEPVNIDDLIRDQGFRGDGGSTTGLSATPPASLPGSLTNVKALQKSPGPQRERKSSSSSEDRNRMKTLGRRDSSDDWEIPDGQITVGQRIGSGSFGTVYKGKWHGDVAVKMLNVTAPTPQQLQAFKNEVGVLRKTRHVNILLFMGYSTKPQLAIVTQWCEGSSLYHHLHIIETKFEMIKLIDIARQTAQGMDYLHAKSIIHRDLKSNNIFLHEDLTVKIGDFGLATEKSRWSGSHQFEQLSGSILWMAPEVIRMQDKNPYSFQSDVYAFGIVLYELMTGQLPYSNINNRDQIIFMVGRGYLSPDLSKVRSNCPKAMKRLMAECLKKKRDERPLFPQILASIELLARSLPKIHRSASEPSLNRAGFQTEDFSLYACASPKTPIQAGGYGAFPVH
Reported endpoint: IC50 (nM)
Answer format: numeric, nM implied, no suffix.

The examples below pair each entry with its known result.
Cc1ccc2c(Cc3cccc(Cl)c3F)nccc2c1NC(=O)c1csc2c(N)ncnc12 [Compound 8]: 8.63
Cc1ccc2c(Nc3cc(F)c(F)cc3F)nccc2c1NC(=O)c1cccc2c(N)ncnc12 [Compound 90]: 18.6

Query: Give me measured IC50, please, for this compound: COc1ccc(Nc2nccc3c(NC(=O)c4cccc5c(N)ncnc45)c(C)ccc23)c(F)c1 [Compound 60]
Result: 6.31

Query: Give me measured IC50, please, for this compound: Cc1ccc2c(C(O)c3ccc(F)cc3)nccc2c1NC(=O)c1csc2c(N)ncnc12 (stereo not shown) [Compound 15]
Result: 11.1

Query: Give me measured IC50, please, for this compound: Cc1ccc2c(Cc3cccc(Cl)c3)nccc2c1NC(=O)c1csc2c(N)ncnc12 [Compound 16]
Result: 6.27

----------
molecular target: mutant BRAF enzyme (BRAF-V600E) (Homo sapiens (Human), UniProt P15056, V600E); test: RAF inhibition assay (TB-PMAP2K1 kit), BRAF-V600E; conditions: FLUORESCEIN-MAP2K1 substrate, 60 min reaction
Reported endpoint: IC50 (nM)
Answer format: numeric, nM implied, no suffix.

The examples below pair each entry with its known result.
Cc1ccc2c(Cc3ccc(N(C)C)nc3)nccc2c1NC(=O)c1csc2c(N)ncnc12: 22.5
Cc1ccc2c(Nc3ccc4c(c3)CN(C)CC4)nccc2c1NC(=O)c1cccc2c(N)ncnc12: 13.2
Cc1ccc2c(Cc3ccc(Cl)cc3)nccc2c1NC(=O)c1csc2c(N)ncnc12: 8.33

Please turn your attention to the following entry.
Query: Jot down IC50 (mutant BRAF enzyme (BRAF-V600E) (Homo sapiens (Human), UniProt P15056, V600E)) of "Cc1ccc2c(Nc3ccc(N(C)C)nc3)nccc2c1NC(=O)c1cccc2c(N)ncnc12" .
Result: 13

----------
biological target: mutant BRAF enzyme (BRAF-V600E) (Homo sapiens (Human), UniProt P15056, V600E); experiment: RAF inhibition assay (TB-PMAP2K1 kit), BRAF-V600E; conditions: FLUORESCEIN-MAP2K1 substrate, 60 min reaction
Reported endpoint: IC50 (nM)
Answer format: numeric, nM implied, no suffix.

The examples below pair each entry with its known result.
Cc1ccc(Nc2nccc3c(NC(=O)c4cccc5c(N)ncnc45)c(C)ccc23)cc1 [Compound 65]: 4.8
CC(=O)c1ccc(Nc2nccc3c(NC(=O)c4cccc5c(N)ncnc45)c(C)ccc23)cc1 [Compound 63]: 5.39

Query: Give me measured IC50, please, for this compound: Cc1ccc2c(Nc3ccc(F)c(Cl)c3)nccc2c1NC(=O)c1cnc2c(N)ncnn12 [Compound 58]
Result: 4.47

Query: Give me measured IC50, please, for this compound: Cc1ccc2c(Nc3ccc(Cl)cc3F)nccc2c1NC(=O)c1cccc2c(N)ncnc12 [Compound 41]
Result: 12.7

Query: Give me measured IC50, please, for this compound: Cc1ccc2c(C(=O)c3ccc(Cl)cc3F)nccc2c1NC(=O)c1csc2c(N)ncnc12 [Compound 27]
Result: 6.48

Query: Give me measured IC50, please, for this compound: Cc1ccc2c(Nc3ccccc3F)nccc2c1NC(=O)c1cccc2c(N)ncnc12 [Compound 39]
Result: 1.74

Query: Give me measured IC50, please, for this compound: Cc1ccc2c(C(O)c3ccc(N(C)C)nc3)nccc2c1NC(=O)c1csc2c(N)ncnc12 (centres unmarked) [Compound 37]
Result: 20.4

Query: Give me measured IC50, please, for this compound: COc1ccc(Cc2nccc3c(NC(=O)c4csc5c(N)ncnc45)c(C)ccc23)cc1 [Compound 5]
Result: 8.9

Numbers sourced from patent US20230312556A1.
